STUDY SYSTEM: Cytochrome P450 2C19 (Homo sapiens)
PROTOCOL NOTES: NVS_ADME_hCYP2C19: NovaScreen (NVS) CYP450-related Enzyme Activity (ADME) Assay for human CYP2C19 (AID 2283113);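 note: potency for inhibition seen as loss of fluorescent signal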
Inconclusive results are not listed. Calls of active or inactive are those of the source. Rule for the calls: active = hit-call score of the fitted dose curve at least 0.9, where 1 is the maximum; inconclusive = response in the unintended direction; inactive = score below 0.9.
In this section we review reported AC50 values for a set of compounds.

>  <COMPOUND SMILES>
CCOC(=O)C1=NOC(c2ccccc2)(c2ccccc2)C1

>  <QUANTITY NAME>
AC50

>  <TEST RESULT>
1800 nM (active)

$$$$

QUERY: Sample C=CC(=O)OCCCCCCCC(C)C — what was its AC50?
RESULT: 1670 nM (active)

QUERY: Sample Cc1cc(C)n(CO)n1 — what was its AC50?
RESULT: 4010 nM (active)

QUERY: Sample Cc1ccc([N+](=O)[O-])cc1N — what was its AC50?
RESULT: 4920 nM (active)

---

STUDY SYSTEM: Hepatocyte nuclear factor 3-beta (Homo sapiens) (UniProt Q9Y261)
Sequence (Q9Y261 whole entry, looked up): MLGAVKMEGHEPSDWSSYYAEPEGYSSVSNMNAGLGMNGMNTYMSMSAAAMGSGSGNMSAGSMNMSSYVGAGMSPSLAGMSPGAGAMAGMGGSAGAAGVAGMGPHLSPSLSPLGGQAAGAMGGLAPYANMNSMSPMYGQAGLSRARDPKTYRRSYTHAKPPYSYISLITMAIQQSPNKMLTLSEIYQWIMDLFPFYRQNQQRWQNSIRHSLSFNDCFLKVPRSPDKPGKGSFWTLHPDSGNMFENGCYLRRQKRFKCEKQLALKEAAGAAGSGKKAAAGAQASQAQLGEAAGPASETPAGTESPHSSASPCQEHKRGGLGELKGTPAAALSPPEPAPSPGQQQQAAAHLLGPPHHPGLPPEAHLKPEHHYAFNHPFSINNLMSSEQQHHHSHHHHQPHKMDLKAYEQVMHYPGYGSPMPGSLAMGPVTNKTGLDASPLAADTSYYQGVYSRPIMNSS
PROTOCOL NOTES: ATG_FoxA2_CIS: Attagene CIS-FACTORIAL HepG2 Assay for human Forkhead box A2 (FOXA2) (AID 2282942)
CONDITIONS USED: HepG2 cis-reporter transcription factor activity, 24 h; actives raise or lower the signal
The source made the active and inactive calls. How the source made its calls: active means hit-call score of the fitted dose curve at least 0.9, where 1 is the maximum; inactive means score below 0.9. Peptide text beside a SMILES is read from it.
Write down one outcome, taken from Y for active, N for inactive

Worked set:
>  <MOLECULE>
O=C(Cl)c1ccc(C(=O)Cl)cc1

>  <LABEL CLASS>
N

$$$$
>  <MOLECULE>
CC1(C)CCC[C@]2(C)[C@H]3CC(=O)O[C@]3(C)CC[C@@H]12

>  <LABEL CLASS>
N

$$$$
>  <MOLECULE>
CC1(C)[C@@H]2CC[C@@]1(C)C(=O)C2

>  <LABEL CLASS>
N

$$$$
>  <MOLECULE>
CCCCCCCCCCCCc1ccc(O)cc1

>  <LABEL CLASS>
N

$$$$
>  <MOLECULE>
CC1=C(O)C(=O)C(C)O1 (centres undefined)

>  <LABEL CLASS>
N

$$$$
>  <MOLECULE>
COC(=O)[C@H](Cc1ccccc1)NC(=O)[C@@H](N)CC(=O)O (H-Asp-Phe-OMe)

>  <LABEL CLASS>
N

$$$$
>  <MOLECULE>
C=CC(C)(O)CC/C=C(\C)CC (centres undefined)

>  <LABEL CLASS>
N

$$$$
>  <MOLECULE>
Cc1noc(NS(=O)(=O)c2ccc(N)cc2)c1C

>  <LABEL CLASS>
N

$$$$

QUERY: I would be grateful if you could indicate the recorded call for CCCCCCO .
RESULT: N

QUERY: I would be grateful if you could indicate the recorded call for CCN(CC)c1cccc(C)c1 .
RESULT: N

QUERY: I would be grateful if you could indicate the recorded call for O=C1c2ccccc2C(=O)c2cc(S(=O)(=O)O)ccc21 .
RESULT: N

QUERY: I would be grateful if you could indicate the recorded call for CC(C)c1cc(C(C)C)cc(C(C)C)c1 .
RESULT: Y

QUERY: I would be grateful if you could indicate the recorded call for CC(C)c1cccc(C(C)C)c1N .
RESULT: N

QUERY: I would be grateful if you could indicate the recorded call for O=S(=O)(O)c1ccc(Nc2nc(Nc3ccc(C=Cc4ccc(Nc5nc(Nc6ccc(S(=O)(=O)O)cc6)nc(N(CCO)CCO)n5)cc4S(=O)(=O)O)c(S(=O)(=O)O)c3)nc(N(CCO)CCO)n2)cc1 .
RESULT: N

---

STUDY SYSTEM: human Retinoid X Receptor beta (RXRb), RXRB (gene 6257)
PROTOCOL NOTES: ATG_RXRb_TRANS: Attagene TRANS-FACTORIAL HepG2 Assay for human Retinoid X Receptor beta (RXRb) (AID 2283013)
Records with an inconclusive call do not appear. Activity calls are given as the source filed them. Rule for the calls: active = hit-call score of the fitted dose curve at least 0.9, where 1 is the maximum; inconclusive = response in the unintended direction; inactive = score below 0.9.
Write down one outcome, taken from YES = active, NO = inactive

Worked set:
>  <MOLECULE>
Oc1ccccc1Cc1ccccc1O

>  <LABEL CLASS>
NO

$$$$
>  <MOLECULE>
c1ccc(-c2nc3ccccc3[nH]2)cc1

>  <LABEL CLASS>
NO

$$$$
>  <MOLECULE>
CCCCOC(=O)C(C)CC (configuration not stated)

>  <LABEL CLASS>
NO

$$$$
>  <MOLECULE>
COC(OC)(C(=O)c1ccccc1)c1ccccc1

>  <LABEL CLASS>
NO

$$$$
>  <MOLECULE>
Cc1ccc(S(=O)(=O)N=C=O)cc1

>  <LABEL CLASS>
NO

$$$$
>  <MOLECULE>
CC(C)(c1ccccc1)c1ccc(Nc2ccc(C(C)(C)c3ccccc3)cc2)cc1

>  <LABEL CLASS>
NO

$$$$
>  <MOLECULE>
Oc1ccc(/C=C/c2cc(O)cc(O)c2)cc1

>  <LABEL CLASS>
NO

$$$$
>  <MOLECULE>
CCCCCCCC(=O)OCC

>  <LABEL CLASS>
NO

$$$$

QUERY: I would be grateful if you could indicate the recorded call for Cc1ccc([N+](=O)[O-])cc1N .
RESULT: NO

QUERY: I would be grateful if you could indicate the recorded call for O=C(OCc1ccccc1)c1ccc(O)cc1 .
RESULT: NO

QUERY: I would be grateful if you could indicate the recorded call for CC(C)CCOCc1ccccc1 .
RESULT: NO

QUERY: I would be grateful if you could indicate the recorded call for CCC[Si](OC)(OC)OC .
RESULT: NO

QUERY: I would be grateful if you could indicate the recorded call for Nc1ccnc(=O)[nH]1 .
RESULT: NO

QUERY: I would be grateful if you could indicate the recorded call for CCCCCCCCCCCCC .
RESULT: NO

QUERY: I would be grateful if you could indicate the recorded call for Fc1ccc(Br)cc1 .
RESULT: YES

QUERY: I would be grateful if you could indicate the recorded call for O=C(O)C1CCC(C(=O)O)CC1 (configuration not stated) .
RESULT: NO

QUERY: I would be grateful if you could indicate the recorded call for Cc1ccc(C)c(OCCCC(C)(C)C(=O)O)c1 .
RESULT: NO

QUERY: I would be grateful if you could indicate the recorded call for COC(C=C(C)CCC=C(C)C)OC .
RESULT: NO

QUERY: I would be grateful if you could indicate the recorded call for CCCCCCCCCCCCCC(=O)OC(C)C .
RESULT: NO

QUERY: I would be grateful if you could indicate the recorded call for C=Cc1cccc(C)c1 .
RESULT: NO

QUERY: I would be grateful if you could indicate the recorded call for C=CC(=O)OCCCCCCCCCC .
RESULT: NO

QUERY: I would be grateful if you could indicate the recorded call for CCC(C)C(=O)OCCc1ccccc1 (configuration not stated) .
RESULT: NO

QUERY: I would be grateful if you could indicate the recorded call for O=C(O)/C=C/c1ccccc1 .
RESULT: YES

QUERY: I would be grateful if you could indicate the recorded call for CCOC(=O)c1ccc(C)cc1 .
RESULT: NO

---

PROTOCOL NOTES: CCTE_Shafer_MEA_acute_burst_percentage_mean: CCTE's Neural Acute Assay for Percentage of Spikes in a Burst, Shafer Lab (AID 2284017)
The source made the active and inactive calls. Rule for the calls: active = hit-call score of the fitted dose curve at least 0.9, where 1 is the maximum; inactive = score below 0.9.
Write down one outcome, taken from yes for active, no for inactive

Worked set:
>  <COMPOUND>
CC/C=C\CCOC(=O)c1ccccc1O

>  <LABEL CLASS>
no

$$$$
>  <COMPOUND>
CC1(C)CC(O)CC(C)(C)N1[O]

>  <LABEL CLASS>
no

$$$$

With those in mind, consider the next compound.
QUERY: I would be grateful if you could indicate the recorded call for Cc1c(C(=O)c2c[nH]n(C)c2=O)ccc(S(C)(=O)=O)c1C1=NOCC1 .
RESULT: no

---

PROTOCOL NOTES: ATG_Ets_CIS: Attagene CIS-FACTORIAL HepG2 Assay for human Erythroblast Transformation Specific (ETS) (AID 2282941)
CONDITIONS USED: HepG2 ETS cis-reporter transcription, actives raise or lower the signal
Calls of active or inactive are those of the source. Rule for the calls: active = hit-call score of the fitted dose curve at least 0.9, where 1 is the maximum; inactive = score below 0.9.
Write down one outcome, taken from active, inactive

QUERY: I would be grateful if you could indicate the recorded call for CCOC(=O)C1=NOC(c2ccccc2)(c2ccccc2)C1 .
RESULT: inactive

QUERY: I would be grateful if you could indicate the recorded call for CC(C)(C)NC(=O)[C@H]1CC[C@H]2[C@@H]3CC[C@H]4NC(=O)C=C[C@]4(C)[C@H]3CC[C@]12C .
RESULT: inactive

---

Read-out: CD38, CD38 (gene 952)
PROTOCOL NOTES: BSK_SAg_CD38: BioMAP Diversity Plus: SAg Assay for CD38 Biomarker Activity (AID 2283087)
CONDITIONS USED: primary human HUVEC with PBMC; actives raise or lower the signal
Activity calls are given as the source filed them. The calls were made as follows: active = hit-call score of the fitted dose curve at least 0.9, where 1 is the maximum; inactive = score below 0.9.
Write down one outcome, taken from active, inactive

Worked set:
>  <COMPOUND>
O=C1CCCCCCCCCCC1

>  <LABEL CLASS>
inactive

$$$$
>  <COMPOUND>
Cc1c(O)cccc1O

>  <LABEL CLASS>
inactive

$$$$
>  <COMPOUND>
c1ccc2sc(SSN3CCOCC3)nc2c1

>  <LABEL CLASS>
active

$$$$
>  <COMPOUND>
CC=C(C)C=CC=C(C)C

>  <LABEL CLASS>
active

$$$$
>  <COMPOUND>
CCOC(=O)C1=NOC(c2ccccc2)(c2ccccc2)C1

>  <LABEL CLASS>
inactive

$$$$
>  <COMPOUND>
O=C1CCCCCCCCCCCN1

>  <LABEL CLASS>
inactive

$$$$
>  <COMPOUND>
CCc1cccc(C)c1N(C(=O)CS(=O)(=O)O)C(C)COC (configuration not stated)

>  <LABEL CLASS>
inactive

$$$$
>  <COMPOUND>
Nc1cccc(N)n1

>  <LABEL CLASS>
inactive

$$$$

QUERY: I would be grateful if you could indicate the recorded call for CCNc1nc(NC(C)(C)C)nc(OC)n1 .
RESULT: inactive

QUERY: I would be grateful if you could indicate the recorded call for CC(c1cc(C(C)(C)C)cc(C(C)(C)C)c1O)c1cc(C(C)(C)C)cc(C(C)(C)C)c1O .
RESULT: inactive

QUERY: I would be grateful if you could indicate the recorded call for C[N+](C)(C)CCCNS(=O)(=O)C(F)(F)C(F)(F)C(F)(F)C(F)(F)C(F)(F)C(F)(F)C(F)(F)C(F)(F)F .
RESULT: inactive

QUERY: I would be grateful if you could indicate the recorded call for CCCC(C)C(=O)OCC (configuration not stated) .
RESULT: inactive

QUERY: I would be grateful if you could indicate the recorded call for COC(OC)(C(=O)c1ccccc1)c1ccccc1 .
RESULT: inactive

QUERY: I would be grateful if you could indicate the recorded call for C1CNCCN1 .
RESULT: inactive

QUERY: I would be grateful if you could indicate the recorded call for CCCCCCCO .
RESULT: inactive

QUERY: I would be grateful if you could indicate the recorded call for CCCCCCC=O .
RESULT: inactive

QUERY: I would be grateful if you could indicate the recorded call for CCCCCCCCC(CO)CCCCCC (configuration not stated) .
RESULT: inactive

QUERY: I would be grateful if you could indicate the recorded call for Cc1ccc([N+](=O)[O-])cc1N .
RESULT: inactive

QUERY: I would be grateful if you could indicate the recorded call for CC(Cl)COP(=O)(OCC(C)Cl)OCC(C)Cl (configuration not stated) .
RESULT: inactive

QUERY: I would be grateful if you could indicate the recorded call for Oc1ccc(/C=C/c2cc(O)cc(O)c2)cc1 .
RESULT: inactive
